// data source = ChEMBL document CHEMBL1926618

system: Liver microsomes; experiment: Antioxidant activity against Fe2+-cystine induced lipid peroxidation in rat liver microsomes at 10 uM; assay type: functional; conditions: Microsome
Active and inactive are the calls of the source. The rule behind the calls is not given here.
endpoint.label: Activity

These solved cases illustrate the format of a correct answer.
{"columns": ["compound", "endpoint.label", "reported.value"],
 "data": [
  ["C=C[C@H]1[C@H](O[C@@H]2O[C@H](CO)[C@@H](O)[C@H](O)[C@H]2O)OC=C(C(=O)[O-])[C@H]1/C=C/c1ccc[n+](CCO)c1 [LONIJAPOSIDE I]", "Activity", "inactive"],
  ["C=C[C@H]1[C@H](O[C@@H]2O[C@H](CO)[C@@H](O)[C@H](O)[C@H]2O)OC=C(C(=O)OC)[C@H]1/C=C/c1ccc[n+](CCCC(=O)[O-])c1 [LONIJAPOSIDE N]", "Activity", "inactive"],
  ["C=C[C@H]1[C@H](O[C@@H]2O[C@H](CO)[C@@H](O)[C@H](O)[C@H]2O)OC=C(C(=O)[O-])[C@H]1/C=C/c1ccc[n+](CC(=O)O)c1 [LONIJAPOSIDE K]", "Activity", "inactive"],
  ["C=C[C@@H]1/C(=C\\Cc2cc(C(=O)[O-])c[n+](CCCC(=O)O)c2)C(C(=O)OC)=CO[C@H]1O[C@@H]1O[C@H](CO)[C@@H](O)[C@H](O)[C@H]1O [LONIJAPOSIDE H]", "Activity", "inactive"]
]}

For reference, reported Activity for C=C[C@H]1[C@H](O[C@@H]2O[C@H](CO)[C@@H](O)[C@H](O)[C@H]2O)OC=C(C(=O)O)[C@H]1C[C@H]1OC(=O)C(O)=C1c1ccccc1 [LONIPHENYRUVIRIDOSIDE D] stands at inactive
